biological target: human TLR8 (Homo sapiens, UniProt Q9NR97); assay: TLR7/8-NF-κB reporter assay (HEK-TLR8, SEAP); settings: HEK-TLR8 cells, 24 hrs, read-out: EC50 of TLR8 (mean ± SD)
Sequence (Q9NR97 27-1041): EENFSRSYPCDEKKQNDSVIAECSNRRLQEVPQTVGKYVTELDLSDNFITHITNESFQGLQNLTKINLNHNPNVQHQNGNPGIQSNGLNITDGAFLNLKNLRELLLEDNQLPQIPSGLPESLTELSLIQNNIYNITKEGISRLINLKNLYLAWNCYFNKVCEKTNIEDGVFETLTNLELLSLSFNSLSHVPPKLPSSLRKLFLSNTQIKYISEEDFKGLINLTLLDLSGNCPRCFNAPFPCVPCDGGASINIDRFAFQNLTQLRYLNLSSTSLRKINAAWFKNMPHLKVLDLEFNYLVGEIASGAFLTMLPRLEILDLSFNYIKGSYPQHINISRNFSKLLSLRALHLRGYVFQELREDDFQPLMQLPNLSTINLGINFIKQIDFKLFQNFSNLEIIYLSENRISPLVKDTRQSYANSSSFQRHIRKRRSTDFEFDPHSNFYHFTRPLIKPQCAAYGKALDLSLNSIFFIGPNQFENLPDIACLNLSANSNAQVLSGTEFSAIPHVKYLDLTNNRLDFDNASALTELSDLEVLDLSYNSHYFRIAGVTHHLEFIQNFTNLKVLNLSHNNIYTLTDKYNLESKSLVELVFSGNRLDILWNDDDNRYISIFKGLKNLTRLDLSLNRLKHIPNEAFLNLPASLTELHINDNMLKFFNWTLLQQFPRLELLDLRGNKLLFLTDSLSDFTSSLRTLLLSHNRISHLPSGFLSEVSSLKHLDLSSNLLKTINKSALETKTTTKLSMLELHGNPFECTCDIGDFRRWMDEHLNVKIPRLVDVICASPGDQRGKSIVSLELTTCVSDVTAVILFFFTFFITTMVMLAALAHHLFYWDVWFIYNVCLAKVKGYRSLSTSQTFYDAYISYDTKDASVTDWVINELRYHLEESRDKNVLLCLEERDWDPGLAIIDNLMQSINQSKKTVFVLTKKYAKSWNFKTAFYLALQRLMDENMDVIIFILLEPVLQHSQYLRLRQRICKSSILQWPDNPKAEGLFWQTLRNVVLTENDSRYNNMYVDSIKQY
pEC50: −log10 of the molar value.
Classify by measured pEC50: 1 (yes) if it is equal to or exceeds 5, 0 (no) if it is smaller.

Some solved entries appear below for comparison.
# check: pEC50 of CCCCc1nc2c(N)nc3cc(C(=O)OCC)ccc3c2n1CC(C)(C)O is greater than or equal to 5
0 (no)

# check: pEC50 of CCCCc1nc2c(N)nc3cc(C(=O)OCC)ccc3c2n1CC(C)O (centres unmarked) is greater than or equal to 5
1 (yes)

# check: pEC50 of COC(=O)c1ccc2nc(N)c3ncn(CC(C)C)c3c2c1 is greater than or equal to 5
0 (no)

# check: pEC50 of CCCCc1nc2c(N)nc3cc(C(=O)OC)ccc3c2n1CCO is greater than or equal to 5
1 (yes)

Okay, next one:
# check: pEC50 of CCCCc1nc2c(N)nc3cc(C(=O)OC(C)C)ccc3c2n1CC(C)(C)O is greater than or equal to 5
0 (no)

* * *

Target: human TLR7 (Homo sapiens, UniProt Q9NYK1)
Sequence (Q9NYK1 27-1049): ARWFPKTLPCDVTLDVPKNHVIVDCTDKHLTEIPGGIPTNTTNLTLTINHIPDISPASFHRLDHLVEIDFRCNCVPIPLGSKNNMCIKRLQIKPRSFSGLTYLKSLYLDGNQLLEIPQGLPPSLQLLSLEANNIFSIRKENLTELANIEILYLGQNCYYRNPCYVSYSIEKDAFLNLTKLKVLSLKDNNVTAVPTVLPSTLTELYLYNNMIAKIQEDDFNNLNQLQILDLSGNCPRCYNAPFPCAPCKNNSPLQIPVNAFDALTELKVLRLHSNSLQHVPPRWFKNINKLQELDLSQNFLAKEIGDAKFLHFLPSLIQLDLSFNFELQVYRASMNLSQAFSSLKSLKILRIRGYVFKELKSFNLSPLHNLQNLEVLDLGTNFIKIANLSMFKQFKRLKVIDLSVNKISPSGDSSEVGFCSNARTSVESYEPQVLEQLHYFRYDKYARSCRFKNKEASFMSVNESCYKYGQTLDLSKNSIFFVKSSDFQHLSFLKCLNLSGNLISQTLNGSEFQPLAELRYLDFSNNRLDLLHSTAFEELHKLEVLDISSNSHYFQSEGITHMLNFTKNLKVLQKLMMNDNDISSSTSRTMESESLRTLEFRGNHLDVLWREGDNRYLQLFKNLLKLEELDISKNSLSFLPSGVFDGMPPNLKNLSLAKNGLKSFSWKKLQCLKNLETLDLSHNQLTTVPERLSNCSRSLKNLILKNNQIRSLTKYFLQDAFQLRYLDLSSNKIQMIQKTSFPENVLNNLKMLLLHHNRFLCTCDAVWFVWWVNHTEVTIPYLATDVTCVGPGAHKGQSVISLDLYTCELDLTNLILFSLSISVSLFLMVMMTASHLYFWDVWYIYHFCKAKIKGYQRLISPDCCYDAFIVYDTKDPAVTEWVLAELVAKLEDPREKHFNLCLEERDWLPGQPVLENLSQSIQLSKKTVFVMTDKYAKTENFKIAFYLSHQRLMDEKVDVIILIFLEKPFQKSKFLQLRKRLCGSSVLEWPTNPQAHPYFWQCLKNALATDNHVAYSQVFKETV
Experiment: TLR7/8-NF-κB reporter assay (HEK-TLR7, SEAP)
Details: HEK-TLR7 cells, 24 hrs, read-out: EC50 of TLR7 (mean ± SD)
Method: Human embryonic kidney (HEK) cells that were stably transfected with human TLR7 or TLR8 and an NF-κB—responsive secreted embryonic alkaline phosphatase (SEAP) gene (HEK-TLR7/8) were purchased from InvivoGen (San Diego, Calif.). […] Twenty microliters of the supernatant from each well was incubated with Quanti-blue substrate solution (InvivoGen) at 37° C. for 1 hour and absorbance was read at 650 nm using a Synergy plate reader (Biotek, Winooski, Vt.).
Below is a list of entries, each paired with its recorded pEC50 value.
The read-out pEC50 is expressed as -log10 of concentration in moles per litre.

Recorded pEC50, per entry:
Please give the measured pEC50 for this molecule: CCCc1nc2c(N)nc3cc(C(=O)OC)ccc3c2n1CC(C)(C)O
4.62

Please give the measured pEC50 for this molecule: CCc1nc2c(N)nc3cc(C(=O)OC)ccc3c2n1CC(C)(C)O
4.54

Continuing:
Please give the measured pEC50 for this molecule: CCCCCc1nc2c(N)nc3cc(C(=O)OC)ccc3c2n1CC(C)(C)O
5.59

Please give the measured pEC50 for this molecule: CCCCc1nc2c(N)nc3cc(C(=O)OC(C)C)ccc3c2n1CC(C)O (centres unmarked)
5.60

Please give the measured pEC50 for this molecule: CCCCc1nc2c(N)nc3cc(C(=O)OC)ccc3c2n1CCOC
5.25

* * *

molecular target: human TLR8 (Homo sapiens, UniProt Q9NR97); assay: TLR7/8-NF-κB reporter assay (HEK-TLR8, SEAP); details: HEK-TLR8 cells, 24 hrs, read-out: EC50 of TLR8 (mean ± SD)
value.type: pEC50
The read-out pEC50 is expressed as -log10 of concentration in moles per litre.

Recorded pEC50, per entry:
Please give the measured pEC50 for this compound: CCCCc1nc2c(N)nc3cc(C(=O)OC(C)C)ccc3c2n1CC(C)O (centres unmarked)
5.24

Please give the measured pEC50 for this compound: CCCCc1nc2c(N)nc3cc(C(=O)OC)ccc3c2n1CC(C)(C)O
4.30

Please give the measured pEC50 for this compound: CCCCc1nc2c(N)nc3cc(C(=O)OC)ccc3c2n1CCOCc1ccccc1
4.51

Continuing:
Please give the measured pEC50 for this compound: CCCCCc1nc2c(N)nc3cc(C(=O)OC)ccc3c2n1CC(C)(C)O
5.15

Please give the measured pEC50 for this compound: COCCc1nc2c(N)nc3cc(C(=O)OC)ccc3c2n1CC(C)O (centres unmarked)
4.50

* * *

target: human TLR7 (Homo sapiens); test: TLR7/8-NF-κB reporter assay (HEK-TLR7, SEAP); conditions: HEK-TLR7 cells, 24 hrs, read-out: EC50 of TLR7 (mean ± SD)
value.type: EC50 (µM)
Reply numerically in µM, unit not repeated.

Recorded EC50, per entry:
Please give the measured EC50 for this molecule: CCCCc1nc2c(N)nc3cc(C(=O)OC)ccc3c2n1CCOCc1ccccc1
2.42

Please give the measured EC50 for this molecule: CCCCc1nc2c(N)nc3cc(C(=O)OC)ccc3c2n1CCO
22.9

Continuing:
Please give the measured EC50 for this molecule: CCCCc1nc2c(N)nc3cc(C(=O)OC)ccc3c2n1CC(C)(C)O
1.52

Please give the measured EC50 for this molecule: COC(=O)c1ccc2c(c1)nc(N)c1nc(Cc3ccccc3)n(CC(C)(C)O)c12
4.79

Please give the measured EC50 for this molecule: COC(=O)c1ccc2c(c1)nc(N)c1nc(C)n(CC(C)(C)O)c12
49.2

Please give the measured EC50 for this molecule: COC(=O)c1ccc2nc(N)c3ncn(CC(C)C)c3c2c1
21.2

Please give the measured EC50 for this molecule: CCCCc1nc2c(N)nc3cc(C(=O)OCC)ccc3c2n1CC(C)O (centres unmarked)
5.23

Please give the measured EC50 for this molecule: CCCCc1nc2c(N)nc3cc(C(=O)OCC)ccc3c2n1CC(C)(C)O
2.21

Please give the measured EC50 for this molecule: CCCCc1nc2c(N)nc3cc(C(=O)OC(C)C)ccc3c2n1CC(C)(C)O
3.94

Please give the measured EC50 for this molecule: COCCc1nc2c(N)nc3cc(C(=O)OC)ccc3c2n1CC(C)O (centres unmarked)
20.2

Please give the measured EC50 for this molecule: CCOC(=O)c1ccc2c(c1)nc(N)c1ncn(CC(C)C)c12
7.92

Every entry's value here was drawn from patent US9034336B2.
